# subject-of-test: QPCT (Homo sapiens)
# Sequence (Q16769 29-361): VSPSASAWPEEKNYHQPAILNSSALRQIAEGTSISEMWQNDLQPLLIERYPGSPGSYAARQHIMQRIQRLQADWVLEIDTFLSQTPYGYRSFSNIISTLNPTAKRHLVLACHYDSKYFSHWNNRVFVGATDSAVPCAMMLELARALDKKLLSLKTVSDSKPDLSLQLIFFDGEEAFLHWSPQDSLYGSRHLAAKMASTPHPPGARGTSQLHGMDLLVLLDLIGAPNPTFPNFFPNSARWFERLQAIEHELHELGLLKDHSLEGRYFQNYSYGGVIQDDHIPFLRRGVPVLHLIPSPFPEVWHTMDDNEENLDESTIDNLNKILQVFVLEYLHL
readout-name: IC50 (nM)
Give bare numbers, in nM.

Cn1cnnc1C1(F)CCN(c2c(C#N)cc(Cl)cc2-c2cnc3nn(C(C)(C)C)cc3c2)CC1 [Example 19] :: 1
Cn1cnnc1C1CCN(c2c(-c3cnc4nn(C(C)(C)C)cc4c3)ccc(C(F)(F)F)c2C#N)CC1 [Example 32] :: 2
Cn1cnnc1C1CCN(c2c(C#N)ccc(OC(F)F)c2-c2ccc(F)nc2)CC1 [Example 13] :: 2

// each listed compound needs a value for IC50
1. Cn1cnnc1C1(F)CCN(c2c(C#N)cc(C(F)(F)F)cc2-c2ccc(F)nc2)CC1 [Example 4]
2. Nc1ncc(C2CCN(c3ncccc3-c3ccc(F)nc3)CC2)s1 [Prior art Compound 1094, reference compound]

// result
1. 4
2. 1710

====

So I've got a bunch of molecules here, and I need their Papp A→B values.
# test-method-notes: Assay C: Permeability in CACO-2 cells
# Assay type: in vitro ADME
# condition-description: human; Caco-2, apical to basolateral, pH 7.2
One number for each entry, in ×10⁻⁶ cm/s.

Consider the worked cases shown below.
Cn1cnnc1C1CCN(c2c(C#N)cc(C(F)(F)F)cc2-c2ccc(F)nc2)CC1 :: 9
Cn1cnnc1C1CCN(c2c(C#N)cc(C#N)cc2-c2ccc(F)nc2)CC1 :: 1.1

Next, consider the following molecule.
// query Quick one: Papp A→B for Cn1cnnc1C1(F)CCN(c2c(C#N)cc(Cl)cc2-c2ccc(F)nc2)CC1 ?
// result 66

====

# test-method-notes: Assay C: Permeability in CACO-2 cells
# Format: in vitro ADME
# condition-description: human, pH 7.2; Caco-2, permeability B−A/permeability A−B
readout-name: efflux ratio
One number for each entry.

Past entries and their recorded results:
Cn1cnnc1C1(F)CCN(c2c(C#N)cc(Cl)cc2-c2ccc(F)nc2)CC1 :: 1
COc1ccc(-c2ccc(F)nc2)c(N2CCC(c3nncn3C)CC2)c1C#N :: 12.5
Cn1cnnc1C1(F)CCN(c2c(C#N)cc(F)cc2-c2ccc(F)nc2)CC1 :: 1.6
Cn1cnnc1C1CCN(c2c(C#N)ccc(OCc3ccccc3)c2-c2ccc(F)nc2)CC1 :: 2.6
Cn1cnnc1C1CCN(c2c(C#N)cc(Cl)cc2-c2ccc(F)nc2)CC1 :: 3.3

Hey, can you go through the list below and give me efflux ratio for every item?
1. COc1cc(-c2cc(C(F)(F)F)cc(C#N)c2N2CCC(F)(c3nncn3C)CC2)cnn1
2. Cn1cnnc1C1(F)CCN(c2c(-c3cnc4nn(C(C)(C)C)cc4c3)ccc(Cl)c2C#N)CC1
3. Cn1cnnc1C1(F)CCN(c2c(-c3ccc(F)nc3)ccc(C(F)(F)F)c2C#N)CC1
4. Cn1cnnc1C1CCN(c2c(C#N)cc(C#N)cc2-c2ccc(F)nc2)CC1

// result
1. 4.3
2. 19.1
3. 1.4
4. 39.1

Consider the following items and state reported efflux ratio for each.
1. Cn1cnnc1C1CCN(c2c(C#N)ccc(OCC3CC3)c2-c2ccc(F)nc2)CC1
2. Cn1cnnc1C1CCN(c2c(-c3ccc(F)nc3)ccc(C(F)(F)F)c2C#N)CC1

// result
[3.2, 3.5]

Provide the reported efflux ratio of each entry below, same order.
1. Cn1cnnc1C1(F)CCN(c2c(C#N)cc(C(F)(F)F)cc2-c2ccnnc2)CC1
2. COc1ccc(-c2cnc3nn(C(C)(C)C)cc3c2)c(N2CCC(F)(c3nncn3C)CC2)c1C#N
3. Cn1cnnc1C1(F)CCN(c2c(C#N)cc(C(F)(F)F)cc2-c2cnc3nc(C4(C)CC4)nn3c2)CC1

// result
[10.3, 51.9, 17.1]

// query Query (molecule): Cn1cnnc1C1(F)CCN(c2c(C#N)cc(C(F)(F)F)cc2-c2cnc3nn(C(C)(C)C)cc3c2)CC1 ; field requested: efflux ratio
// result 3.2
